METHOD DESCRIPTION: chemical genetic growth profiling, strain panel (AID 1159580);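 further: tested at 20 µM; growth read once vehicle control cultures reached saturation at 30 °C; lower values mean less growth of the strain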
COND: S. cerevisiae deletion strains, growth OD, locus YLR113W, strain HOG1
In all, about 5,500 compounds went through this assay and about 2,000 (36%) were called active. Not shown: some 18% with an inconclusive outcome. No stated cut-off is given here; in the data, active means normalized growth mostly below about 0.91 (no sharp cut-off); inconclusive means no clear call, values can overlap the other calls; inactive means mostly above about 0.92. The list shows a part of the results.
Pick one: true for active, false for inactive

Prompt line: // return assay outcome for CC(=O)O[C@H]1[C@@H]2[C@@H](OC(=O)Cc3ccccc3)[C@@H](C)C[C@]2(OC(C)=O)C(=O)/C(C)=C/[C@H]2[C@H](CC[C@@]13CO3)C2(C)C
Response line: false

Prompt line: // return assay outcome for CC(=O)OCC(=O)[C@@]1(O)[C@@H](C)CC2C3CCC4=CC(=O)C=C[C@]4(C)[C@@]3(F)[C@@H](O)C[C@@]21C (some centres undefined)
Response line: false

Prompt line: // return assay outcome for OC1(C(F)(F)F)CC(C23CC4CC(CC(C4)C2)C3)=NN1 (centres undefined)
Response line: true

Prompt line: // return assay outcome for c1ccc(N=Nc2ccccc2)cc1
Response line: false

Prompt line: // return assay outcome for CCCCNc1cc(C(=O)O)cc(S(N)(=O)=O)c1Oc1ccccc1
Response line: false

Prompt line: // return assay outcome for NCCSSCCN
Response line: false

Prompt line: // return assay outcome for Cc1[nH]c(C)c(Cl)c(=O)c1Cl
Response line: false

Prompt line: // return assay outcome for Cc1cc(O)c(C=O)c(O)c1C(=O)O
Response line: false

Prompt line: // return assay outcome for Cc1cc(Cl)ccc1NNC(=O)c1ccno1
Response line: false
